Biological target: T1, UNK ZnF1-6 (called full-length) (human, UniProt Q9C0B0 30-357)
T1 sequence: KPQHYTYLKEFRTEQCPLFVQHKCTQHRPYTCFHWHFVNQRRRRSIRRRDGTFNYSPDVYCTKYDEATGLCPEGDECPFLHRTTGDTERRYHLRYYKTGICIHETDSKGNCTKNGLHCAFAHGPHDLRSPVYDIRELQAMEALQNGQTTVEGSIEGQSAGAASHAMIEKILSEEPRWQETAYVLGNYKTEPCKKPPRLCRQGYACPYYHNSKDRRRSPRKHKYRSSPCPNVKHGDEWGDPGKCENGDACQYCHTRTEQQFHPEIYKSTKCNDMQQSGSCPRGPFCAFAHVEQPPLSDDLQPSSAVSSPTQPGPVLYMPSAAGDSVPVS
Experiment: nsRBNS (natural sequence RNA bind-n-seq); RBNS binding buffer (assumed for nsRBNS): 25 mM Tris pH 7.5, 150 mM KCl, 3 mM MgCl2, 0.01% Triton X-100, 500 ug/ml BSA, 20 U/ml SUPERase-In, 4 C; UNK is unkempt and MSI1 is Musashi-1; names of the RNAs are library labels; protein concentration not given here; high values mean tight binding
Whole data set: some 5,800 sequences, median “enrichment r” near 0.68, cut for the highest 2% near 11. The full list was thinned out, with the highest values kept by preference.
RESULT TYPE: binding signal
Respond with the figure and its unit, in that order.

BINDER	binding signal
chr15:64957256:64957357:+|3pUTR|ENSG00000166839|msi1|FALSE|unique (ssRNA) RNA: GGGAGUUCUACAGUCCGACGAUCGCUGGAAAAUUGAAACAUAAUUUCACAAUUAUUCCUUUUUCCACCUUAAAUAAUAAGAGUAGAAUACUUUCUGUGUUUUUAUCUUAUACACAUGAAUAAAUGCUAUGGCUUAUCACAGUUCAACAGAGGAUUGAGCAUCA	0.535 enrichment R

Give binding signal for each listed item.
1. chr2:216672738:216672882:-|3pUTR|ENSG00000115461|msi1|FALSE|unique (ssRNA) RNA: GGGAGUUCUACAGUCCGACGAUCUUCUCUUAGGCUUUUGUUUCUAUUUCAAACAUACUUUCUUGGUUUUCUAAUGGAGUAUAUAGUUUAGUCAUUUCACAGACUCUGGCCUCCUCUCCUGAAAUCCUUUUGGAUGGGGAAAGGCAACAGAGGAUUGAGCAUCA
2. ENSG00000168615:stop:overlap|stop_codon|ENSG00000168615|stop_codon|NA|stop_codon (ssRNA) RNA: GGGAGUUCUACAGUCCGACGAUCCUGGCCAGAAUACCCAAAAUAAUUGGCAGAUGUCAAAUUUGGCUUUCUGUGUUUAUUACUAGAGCAUAAACAUUUCUAGUUUUGUUUGAGUGUUUUACAGUCCUUUUUGGCAGUUAGGUACAACAGAGGAUUGAGCAUCA

Ans.
1: 5.21 enrichment R; 2: 0.532 enrichment R

Reference source for all entries: paper PMC12136788
